As shown below, each of these sequences has a reported phosphorylation enrichment value.
Molecular target: FGFR3 (UniProt P22607)
Sequence (P22607 whole entry, looked up): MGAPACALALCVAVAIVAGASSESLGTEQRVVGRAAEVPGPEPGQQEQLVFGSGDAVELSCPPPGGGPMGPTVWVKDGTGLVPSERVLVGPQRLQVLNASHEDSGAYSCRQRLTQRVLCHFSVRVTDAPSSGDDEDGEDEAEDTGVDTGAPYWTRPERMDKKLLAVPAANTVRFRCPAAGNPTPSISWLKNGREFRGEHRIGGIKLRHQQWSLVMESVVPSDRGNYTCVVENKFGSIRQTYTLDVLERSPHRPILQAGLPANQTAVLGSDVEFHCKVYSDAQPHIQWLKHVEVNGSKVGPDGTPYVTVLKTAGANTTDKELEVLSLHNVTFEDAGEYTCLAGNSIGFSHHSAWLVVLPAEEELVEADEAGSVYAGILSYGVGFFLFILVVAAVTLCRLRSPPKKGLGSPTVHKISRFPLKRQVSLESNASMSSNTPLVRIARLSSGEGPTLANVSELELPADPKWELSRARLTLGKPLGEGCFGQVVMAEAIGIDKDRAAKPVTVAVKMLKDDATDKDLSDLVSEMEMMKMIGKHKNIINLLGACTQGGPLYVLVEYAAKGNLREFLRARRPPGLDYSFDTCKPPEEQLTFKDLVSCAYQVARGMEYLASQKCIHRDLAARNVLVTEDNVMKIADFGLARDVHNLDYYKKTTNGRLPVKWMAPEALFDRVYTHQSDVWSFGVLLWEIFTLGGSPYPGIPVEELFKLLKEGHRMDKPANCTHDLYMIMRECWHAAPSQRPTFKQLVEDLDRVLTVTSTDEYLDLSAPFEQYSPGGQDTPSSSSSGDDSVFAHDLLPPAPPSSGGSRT
Test: phosphorylation enrichment, bacterial display (enrichment ratio); higher = better substrate or ligand; peptides without Tyr show the background
// response body must contain only the number

ISPPVYLTNEW [NRK_Y885] : 0.718

Task item: State the recorded phosphorylation enrichment for this entry: FLGEEYVKAVG [TF_Y674_YF]
Reply: 0.582

Task item: Same question for CTTIHYNFVCN [TP53_Y234_M237V_YF] please.
Reply: 0.769

Task item: Same question for RELGEYALAEF [ALDH1A3_Y492_YF] please.
Reply: 0.784

Task item: Same question for LLVVLYKYRCY [PSEN1_Y154] please.
Reply: 0.615

Task item: Same question for LKGQVDILGRE [ASS1_Y359_Y359D] please.
Reply: 0.638

Task item: Same question for DGMADCSDPSF [CDC5L_Y459_Y459C_YF] please.
Reply: 0.701

Task item: Same question for ALEHKYWALGQ [MAP1A_Y1555_Q1553H] please.
Reply: 0.582

Task item: Same question for FFFDLYGGEKF [PTPN11_Y66_D61Y_YF] please.
Reply: 0.534

Task item: Same question for AKAEICEMRPL [COX10_Y97_Y97C] please.
Reply: 0.477

Task item: Same question for KPIETYFSKNY [PLP1_Y50_L46P] please.
Reply: 0.597

Task item: Same question for DVYVSYDYGKS [SORL1_Y139] please.
Reply: 4.03

Task item: Same question for KFSNQYKATIG [RAB7A_Y37] please.
Reply: 0.411

Task item: Same question for GFSDPYVKAFL [SYT3_Y470_S474F] please.
Reply: 0.729

Task item: Same question for AKFPSYEKNKK [FOXL2_Y91_F90S] please.
Reply: 0.475

Task item: Same question for EFKDAYTFAAD [BRDT_Y335_K336T_YF] please.
Reply: 0.606

Task item: Same question for TEQDPYNNIVH [MMUT_Y364_R369H] please.
Reply: 0.599

* * *

Molecular target: SHP2-C SH2
Test: SH2 binding enrichment of the phosphorylated peptide, bacterial display (enrichment ratio); higher = better substrate or ligand; peptides without Tyr show the background
Output True for SH2 binding enrichment not less than 0.6; output False otherwise.

INMKKYCKKDY [NTN1_Y490] : True
EEKKKYYDAKI [CASP5_Y103_T106A] : True
RLRAAYNLVKR [PFKM_Y103] : False
NNKKDYFDMFE [SLC26A3_Y526_K521N_YF] : False
KEAQVYQAFRL [SUCLG2_Y343_K347R] : False

Query sequence follows.
Task item: Given ETSHNYHKFDS [MATR3_Y243] , state whether its SH2 binding enrichment is at least 0.6.
Reply: True

* * *

Biological target: Fyn (UniProt P06241)
Sequence (P06241 whole entry, looked up): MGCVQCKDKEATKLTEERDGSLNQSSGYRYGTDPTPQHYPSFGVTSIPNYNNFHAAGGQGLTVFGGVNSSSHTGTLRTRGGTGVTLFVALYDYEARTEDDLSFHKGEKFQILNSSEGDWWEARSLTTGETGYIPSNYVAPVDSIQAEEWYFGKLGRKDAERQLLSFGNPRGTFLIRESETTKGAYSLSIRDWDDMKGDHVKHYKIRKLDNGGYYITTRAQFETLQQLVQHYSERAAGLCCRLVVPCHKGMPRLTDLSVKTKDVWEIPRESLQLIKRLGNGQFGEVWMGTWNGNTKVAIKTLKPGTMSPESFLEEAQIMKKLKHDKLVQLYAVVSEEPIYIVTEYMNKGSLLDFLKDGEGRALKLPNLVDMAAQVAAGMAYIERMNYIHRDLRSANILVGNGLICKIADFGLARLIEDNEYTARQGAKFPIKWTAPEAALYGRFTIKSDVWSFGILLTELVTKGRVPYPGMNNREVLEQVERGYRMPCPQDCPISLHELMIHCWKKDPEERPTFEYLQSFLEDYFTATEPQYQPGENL
Experiment: phosphorylation enrichment, bacterial display (enrichment ratio); higher = better substrate or ligand; peptides without Tyr show the background
Output t for phosphorylation enrichment not less than 0.5; output f otherwise.

Here's what some known entries look like.
EAVSIYQFFGQ [CBLC_Y402_H405Y_YF] : t
SREDIYKRNTE [PDE4DIP_Y45_I49T] : f
KEAQVYQAFRL [SUCLG2_Y343_K347R] : t
SSPRRYTIAAL [TTR_Y125_G121S] : f
LINPKYSVEEE [PCDH19_Y27_L25P] : t
YRRITYYNWRH [PDE6B_Y556_H557Y] : f
TGNGYYFRVFS [MYBPC3_Y1136_I1131T] : f
FFCKFYNKSED [RYR1_Y4864_R4861C] : f
SGVVPYEPPEV [TP53_Y220_V216G] : t
ADMETYLLEKS [MYH7_Y266_I263M] : t

Task item: Given SLTGAYASGIP [POM121C_Y378_T379A] , state whether its phosphorylation enrichment is at least 0.5.
Reply: f

Task item: Same question for DVYVSYDYGKS [SORL1_Y139] please.
Reply: t

Task item: Same question for AVLVQYYMEHH [PTPN11_Y80_E76V] please.
Reply: t

Task item: Same question for VNFQPYRKHKF [TEX37_Y28_D24N_YF] please.
Reply: f

Task item: Same question for LLVVLYKYRCY [PSEN1_Y154] please.
Reply: t

Task item: Same question for TQNAVYSAANF [DDX5_Y535_G533A_YF] please.
Reply: t

Task item: Same question for TTKAKYKTPTF [PLD2_Y573_YF] please.
Reply: f

Task item: Same question for DAVKHYMQFRK [CNGA2_Y395] please.
Reply: t

Task item: Same question for GRTNICKNKKD [SLC26A3_Y520_Y520C] please.
Reply: f

Task item: Same question for LFMGDYVDRGY [PPP2CA_Y86] please.
Reply: t

Task item: Same question for QADIIYVNTQL [MERTK_Y872_V870I] please.
Reply: t

* * *

As shown below, each of these sequences has a reported SH2 binding enrichment value.
Molecular target: SHP2-C SH2
Assay: SH2 binding enrichment of the phosphorylated peptide, bacterial display (enrichment ratio); higher = better substrate or ligand; peptides without Tyr show the background
// response body must contain only the number

Worked examples, 3 sequences total:
SLDHPFEKPRK [INAVA_Y333_Y333F] : 0.813
LGSNTYPFLLT [SAG_Y120] : 0.804
VKKKLYEEIDQ [CYP17A1_Y329] : 0.412

Task item: State the recorded SH2 binding enrichment for this entry: KDFNKYVAFIE [KDM4B_Y31_YF]
Reply: 1.02

Task item: Same question for DRLPSYLDKVR [KRT12_Y139_A137P] please.
Reply: 0.756

Task item: Same question for GKGGSYSQAAS [HLA-B_Y344_C349S] please.
Reply: 0.785

Task item: Same question for KGRAGYTTVAV [RET_Y752] please.
Reply: 1.64

Task item: Same question for HRDSSYFWEIE [RAF1_Y340_Q335H_YF] please.
Reply: 0.52

* * *

Molecular target: Grb2 SH2 (UniProt P62993)
Sequence (P62993 whole entry, looked up): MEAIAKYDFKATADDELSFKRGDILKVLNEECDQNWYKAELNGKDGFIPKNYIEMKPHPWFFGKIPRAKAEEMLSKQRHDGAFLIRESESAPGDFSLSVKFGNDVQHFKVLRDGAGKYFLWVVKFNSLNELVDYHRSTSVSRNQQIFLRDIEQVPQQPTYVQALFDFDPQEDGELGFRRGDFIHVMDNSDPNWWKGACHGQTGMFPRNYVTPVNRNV
Experiment: SH2 binding enrichment of the phosphorylated peptide, bacterial display (enrichment ratio); higher = better substrate or ligand; peptides without Tyr show the background
Output condition met for SH2 binding enrichment not less than 1; output condition not met otherwise.

Here's what some known entries look like.
LFHENYNAGTF [CFI_Y421_I416L_YF] : condition not met
SLTRLYVGENA [NLRP3_Y861] : condition not met
KFVVVYFREID [IL17RB_Y447_YF] : condition met
NTFEKYWPFFQ [GATM_Y103_YF] : condition met

Task item: Given KGYRGYSYDDI [TMEM230_Y110] , state whether its SH2 binding enrichment is at least 1.
Reply: condition not met

Task item: Same question for IKKLIYVHLVI [JAGN1_Y42] please.
Reply: condition met

Task item: Same question for QVMDGYPMPIG [MMP14_Y353] please.
Reply: condition not met

Task item: Same question for DTYDPYLDIAL [USP36_Y268_V271I] please.
Reply: condition not met

Task item: Same question for TMKSRYMELYD [BBS2_Y644] please.
Reply: condition not met

* * *

Target: Grb2 SH2 (UniProt P62993)
Experiment: SH2 binding enrichment of the phosphorylated peptide, bacterial display (enrichment ratio); higher = better substrate or ligand; peptides without Tyr show the background
As shown below, each of these sequences has a reported SH2 binding enrichment value.
// response body must contain only the number

SYPHEYGSQEG [RBM10_Y48_R46H] : 0.825
LNARHYGGLTG [PGAM2_Y92_E89A] : 0.779
PRIKTYMRPSP [TDP1_Y497_H493R] : 1.04
KSELAYEIFDK [MYOM2_Y1024] : 0.956
RLLRGHDQFAF [HLA-B_Y137_YF] : 1.06

Task item: State the recorded SH2 binding enrichment for this entry: IKNSGYISRFL [EIF2AK3_Y585_YF]
Reply: 1.24

Task item: Same question for HPAGNYSLSSV [ARFGAP3_Y473_Q468H] please.
Reply: 0.804

* * *

Biological target: c-Src SH2
Experiment: SH2 binding enrichment of the phosphorylated peptide, bacterial display (enrichment ratio); higher = better substrate or ligand; peptides without Tyr show the background
Endpoint: SH2 binding enrichment
// response body must contain only the number

MIAIRYSHSRR [ACOXL_Y260_T255M] : 0.56
FQNSLYAPDFS [FAM92A_Y226_R222Q_YF] : 0.591
DPAFGYEDFTR [SESN2_Y323_T320A] : 5.24
DAAEDYAEGVC [DHODH_Y194_R199C] : 0.609
KEAQVYQAFRL [SUCLG2_Y343_K347R] : 0.486

Task item: State the recorded SH2 binding enrichment for this entry: FETVKYFNNER [ABCB7_Y345_YF]
Reply: 0.509

Task item: Same question for RLMLQYDAVVN [SLC25A32_Y152] please.
Reply: 1.88

Task item: Same question for KKYPDYIQSAM [SGMS2_Y59_I62S] please.
Reply: 0.394

Task item: Same question for LAIELYVVVCK [RHO_Y136_R135L] please.
Reply: 0.458

# credit: the supplement of paper PMC10065799
